Data provenance is PubChem BioAssay (NCI).

system: NCI-H522 lung; assay: NCI tumour cell line growth inhibition, 48 h; in the data active = GI50 below about 0.43 µM; inactive = the rest
Possible outcomes: active, inactive

>>> group("CN1C(=O)/C(=C/c2c(Cl)n(C)c3ccccc23)c2ccccc21")
"inactive"
>>> group("COc1cc2c3c(n(CCCOC(=O)C(F)(F)F)c(=O)c2cc1OC)-c1cc2c(cc1C3=O)OCO2")
"active"
>>> group("Cn1cc(C2=C(c3cccc(Br)c3)C(=O)NC2=O)c2ccccc21")
"inactive"
>>> group("CCOC(=O)c1c(NC(=O)c2cccc(C(F)(F)F)c2)sc2c(CN(C)C)c(O)ccc12")
"inactive"

---

tested on: RPMI-8226 leukemia; assay: NCI tumour cell line growth inhibition, 48 h
ATTRIBUTE_MEASURED: TGI

>>> observed_result("CCCOc1ccc2sc(NC(=O)OC)nc2c1")
"> 100 µM"
>>> observed_result("CCOC(=O)/C=C(/C)Sc1cc(O)c2ccccc2c1O")
"9.09 µM"
>>> observed_result("Cc1ccc(NC(=O)CSc2nnc(-c3ccc(N=Cc4ccc(Cl)cc4)cc3)o2)cc1")
"> 100 µM"
>>> observed_result("N#CC(C(=O)C(=O)Nc1ccc(Cl)cc1)c1ccccc1 (configuration not stated)")
"> 100 µM"
>>> observed_result("COc1ccc(NC(=O)N(C)CC2(O)CCC(C(C)(C)C)CC2)cc1 (configuration not stated)")
"72.5 µM"
>>> observed_result("COc1cccc2cc(C(=O)O)c(=O)oc12")
"> 100 µM"
>>> observed_result("Cc1nc([N+](=O)[O-])cn1CC(=N)N")
"> 100 µM"
>>> observed_result("COc1ccc(OC)c(C(Cc2ccnc3ccccc23)Cc2ccnc3ccccc23)c1")
"> 10 µM"
>>> observed_result("Cc1nn(C(=O)c2ccc(Cl)cc2)c2c1C(/C=C/c1ccccc1)SC(N)=N2 (configuration not stated)")
"> 10 µM"
>>> observed_result("CN(CCO)c1ccc(N2Cc3ccccc3OC3=C2C(=O)c2c(O)ccc(O)c2C3=O)cn1")
"0.713 µM"
>>> observed_result("COC(=O)CC1C=CC(C)(OC)OO1 (configuration not stated)")
"> 100 µM"
>>> observed_result("CC(C)(C)OC(=O)NC(Cc1ccc(OC(C)(C)C)cc1)C(=O)N[C@H]1CCC[C@H]1C(=O)NC(Cc1ccccc1)C(=O)N1CCCC1C(N)=O (some centres not stated)")
"> 100 µM"
